# Subject Of Test: 3H-Pirenzepine bonding to rat brain homogenate (Rattus norvegicus, UniProt P08482)
# Construct: to obtain a rat brain homogenate for testing; from tissue; host or cells: brain without cerebellum, SD male rat (homogenate, 1000×g supernatant)
# Sequence (P08482 whole entry): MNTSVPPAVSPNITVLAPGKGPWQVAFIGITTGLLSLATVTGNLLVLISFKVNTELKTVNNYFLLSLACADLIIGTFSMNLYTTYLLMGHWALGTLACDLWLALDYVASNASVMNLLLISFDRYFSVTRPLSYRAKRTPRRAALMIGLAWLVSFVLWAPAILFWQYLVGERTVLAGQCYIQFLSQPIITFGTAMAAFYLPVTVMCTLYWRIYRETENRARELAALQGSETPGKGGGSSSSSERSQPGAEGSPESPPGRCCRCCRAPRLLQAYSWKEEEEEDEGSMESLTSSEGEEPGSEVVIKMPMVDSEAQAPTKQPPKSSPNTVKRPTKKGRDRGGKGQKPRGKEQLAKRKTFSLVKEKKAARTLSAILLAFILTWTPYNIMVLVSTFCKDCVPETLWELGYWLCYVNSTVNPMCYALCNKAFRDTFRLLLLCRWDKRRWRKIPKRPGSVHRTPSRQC
# Procedure Text: 3H-Pirenzepine bonding inhibition test, rat brain homogenate (Test Example 2)
# Format: binding, SD male rat
Endpoint Label: IC50 (nM)
Kindly provide the numeric value in nM only, without the unit symbol.

Q) Report IC50 for O=[N+]([O-])c1ccc(NCC23CCCN2CCC3)c2ccccc12 please.
A) 900

Q) Cool, now CN(CC12CCCN1CCC2)c1ccc([N+](=O)[O-])c2ccccc12
A) 40

Q) Cool, now O=[N+]([O-])c1cccc2c(NCC34CCCN3CCC4)cccc12
A) 800
